experimentalProtocol: Megestrol Acetate in plasma samples by GC/MS
Format: in vivo
conditionLabel: human, 1.5 mg, Sub 9, 1.5 mg dose, 12 h post dosing
outcomeMeasure: concentration at 12 h
Give the figure together with its unit, number first.

For CC(=O)O[C@]1(C(C)=O)CC[C@H]2[C@@H]3C=C(C)C4=CC(=O)CC[C@]4(C)[C@H]3CC[C@@]21C [megestrol acetate] the compound record lists concentration at 12 h as 1.59 ng/mL

###

experimentalProtocol: Megestrol Acetate in plasma samples by GC/MS
Type: in vivo
conditionLabel: human, 6 mg, Sub 2, 6 mg dose, 1 h post dosing
Method: A total of 90 plasma samples were analyzed for their content of Megestrol Acetate by GC/MS. In this study megestrol acetate was utilized and medroxyprogesterone acetate was utilized as an internal standard. For each sample, 1 mL of human plasma was aliquoted and spiked with 25 μL of the internal standard working solution. […] The time measured represents the number of hours passed post dosing. […] During the study, 3 series of plasma calibration curves were measured (prevalidation run not considered).
outcomeMeasure: concentration at 1 h (ng/mL)
Output spec: scalar in ng/mL, unitless text.

Summary for this molecule, CC(=O)O[C@]1(C(C)=O)CC[C@H]2[C@@H]3C=C(C)C4=CC(=O)CC[C@]4(C)[C@H]3CC[C@@]21C [megestrol acetate] : concentration at 1 h is 32.9
